This collection of values is drawn from patent US20230118688A1.

Biological target: human TLR7 (Homo sapiens, UniProt Q9NYK1)
Construct: host or cells: HEK-Blue TLR7 cells (engineered human embryonic kidney cells)
Sequence (Q9NYK1 27-1049): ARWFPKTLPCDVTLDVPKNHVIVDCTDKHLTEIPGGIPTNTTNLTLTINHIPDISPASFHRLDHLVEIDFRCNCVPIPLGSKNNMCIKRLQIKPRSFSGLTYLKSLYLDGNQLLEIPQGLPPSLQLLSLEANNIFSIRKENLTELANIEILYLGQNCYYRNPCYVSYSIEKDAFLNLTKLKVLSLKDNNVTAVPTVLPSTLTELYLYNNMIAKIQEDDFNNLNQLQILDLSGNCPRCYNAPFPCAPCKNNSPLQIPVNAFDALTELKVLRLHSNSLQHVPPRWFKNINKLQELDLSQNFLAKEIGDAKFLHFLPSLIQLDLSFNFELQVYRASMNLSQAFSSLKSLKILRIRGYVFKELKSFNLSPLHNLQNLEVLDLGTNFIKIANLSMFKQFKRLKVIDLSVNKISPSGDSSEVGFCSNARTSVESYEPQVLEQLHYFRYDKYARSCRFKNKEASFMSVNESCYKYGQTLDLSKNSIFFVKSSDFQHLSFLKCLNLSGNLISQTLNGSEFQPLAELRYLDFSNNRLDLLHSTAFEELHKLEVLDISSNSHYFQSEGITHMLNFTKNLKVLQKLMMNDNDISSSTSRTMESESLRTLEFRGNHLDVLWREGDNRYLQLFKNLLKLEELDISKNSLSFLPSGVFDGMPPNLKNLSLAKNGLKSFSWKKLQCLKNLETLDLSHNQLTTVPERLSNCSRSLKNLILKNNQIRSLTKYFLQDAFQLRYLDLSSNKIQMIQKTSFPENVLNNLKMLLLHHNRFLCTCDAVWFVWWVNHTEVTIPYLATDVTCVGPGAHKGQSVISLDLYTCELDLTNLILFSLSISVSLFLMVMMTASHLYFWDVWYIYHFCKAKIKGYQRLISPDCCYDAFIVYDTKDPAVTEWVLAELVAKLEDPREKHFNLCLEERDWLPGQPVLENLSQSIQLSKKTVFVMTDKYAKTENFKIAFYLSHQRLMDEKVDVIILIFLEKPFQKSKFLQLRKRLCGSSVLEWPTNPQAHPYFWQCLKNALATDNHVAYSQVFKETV
Experiment: Human TLR7 agonist activity reporter assay (HEK-Blue TLR7 cells, SEAP reporter)
Assay type: cell-based
Settings: 18 h treatment, average where assay repeated, Table A1, read-out: hTLR7 Agonism EC50
Experimental: This procedure describes a method for assaying human TLR7 (hTLR7) agonist activity of the compounds disclosed in this specification. HEK-Blue™ TLR7 cells were added to each well of a 384-well tissue-culture plate (15,000 cells per well) and incubated 16-18 h at 37° C., 5% CO2. […] After 18 h treatment ten microliters of freshly-prepared Quanti-Blue™ reagent (Invivogen) was added to each well, incubated for 30 min (37° C., 5% CO2) and SEAP levels measured using an Envision plate reader (OD=620 nm). […]
Please provide measured pEC50 for the entries that follow.
Answers are plain numbers, as −log10 of the molar value.

INSERT INTO measurements (given_smiles, observed_value) VALUES
  ('CCC[C@@H](CCO)Nc1nc(N)nc2cnn(Cc3cc(CN[C@@H]4CCOC[C@H]4O)ccc3OC)c12', 6.32),
  ('CCC[C@@H](CCO)Nc1nc(N)nc2cnn(Cc3cc(CN[C@H]4COCC[C@@H]4O)ccc3OC)c12', 6.71),
  ('CCCCNc1nc(N)nc2cnn(Cc3cc(CNC4CC5(CC5)C4)ccc3OC)c12', 6.45);

Kindly review the next molecule as well.
Output pEC50 of CCCCNc1nc(N)nc2cnn(Cc3cc(CN4CC5(C4)CN(C(=O)C4CCC4)C5)ccc3OC)c12
6.72
